The origin of these recorded values is patent US20240041042A1.

- Tested on: Oryza sativa (ORYSA)
- Assay type: in vivo
- condition-details: crop plant compatibility, 80 g/ha, effect in comparison to untreated controls
endpoint-name: Post-emergence action against ORYSA in % (%)

These recorded examples may help you get a feel for the data.
>  <compound>
CCOC(=O)COc1nn(-c2ccc(Br)c(C)n2)c(-c2cncc(F)c2)c1Br

>  <Post-emergence action against ORYSA in % / %>
0

$$$$
>  <compound>
C[C@@H](Oc1nn(-c2ccccn2)c(-c2ccc(F)nc2)c1Br)C(=O)O

>  <Post-emergence action against ORYSA in % / %>
10

$$$$

[I] COC(=O)COc1nn(-c2ncccc2C(F)(F)F)c(-c2cncc(F)c2)c1I
[II] CCOC(=O)[C@@H](C)Oc1nn(-c2ncccc2F)c(-c2ccc(F)nc2)c1F
Enquiry: Which shows the larger Post-emergence action against ORYSA in % value: I or II ? Answer format: the label of the selected item.
Return: I
(I: 10%, II: 0%)

[1] COC(=O)COc1nn(-c2ncccc2F)c(-c2cncc(F)c2)c1Br [Example I-49]
[2] Cc1cccnc1-n1nc(OCC(=O)O)c(Br)c1-c1cncc(F)c1
Enquiry: For the pair 1 and 2 , which entry has the numerically smaller recorded Post-emergence action against ORYSA in %? Bench note: the answer is the label of the chosen record.
Return: 2
(2: 0%, 1: 10%)

---

- Tested on: Amaranthus retroflexus (AMARE)
- test-name: Post-emergence herbicidal action against AMARE
- Format: in vivo
- condition-details: 320 g/ha, visual rating about 3 weeks after treatment
Reported Post-emergence action against AMARE in % values are given for each entry in this list.
Provide the reading as a plain figure in %.

>  <compound>
COC(=O)C(C)NC(=O)[C@@H](C)Oc1nn(-c2ccccn2)c(-c2cncc(F)c2)c1Cl (some centres unmarked)

>  <Post-emergence action against AMARE in %, %>
90

$$$$
>  <compound>
COC(=O)[C@@H](C)Oc1nn(-c2nc(F)ccc2F)c(-c2cncc(F)c2)c1C1CC1

>  <Post-emergence action against AMARE in %, %>
80

$$$$
>  <compound>
O=C(O)COc1nn(-c2ccnc(Cl)c2)c(-c2ccc(F)nc2)c1Br

>  <Post-emergence action against AMARE in %, %>
90

$$$$
>  <compound>
COC(=O)CCOC(=O)COc1nn(-c2cccnc2C)c(-c2cncc(F)c2)c1Br

>  <Post-emergence action against AMARE in %, %>
80

$$$$
>  <compound>
CCOC(=O)COc1nn(-c2ccccn2)c(-c2ccnc(F)c2)c1Br

>  <Post-emergence action against AMARE in %, %>
80

$$$$
>  <compound>
C[C@@H](Oc1nn(-c2ncccc2F)c(-c2ccc(F)nc2)c1C1CC1)C(=O)O

>  <Post-emergence action against AMARE in %, %>
90

$$$$
>  <compound>
O=C(O)COc1nn(-c2ncccc2F)c(-c2ccc(F)nc2)c1Br

>  <Post-emergence action against AMARE in %, %>
90

$$$$
>  <compound>
O=C(O)COc1nn(-c2ccccn2)c(-c2ccc(F)nc2)c1F

>  <Post-emergence action against AMARE in %, %>
80

$$$$

Enquiry: Give the measured Post-emergence action against AMARE in % of COC(=O)C=CC(C)NC(=O)COc1nn(-c2ccccn2)c(-c2ccc(F)nc2)c1Br (centres unmarked) .
Return: 80

Enquiry: How about this compound: C=C(COC(=O)COc1nn(-c2ccccn2)c(-c2ccc(F)nc2)c1Br)C(=O)OC
Return: 80

Enquiry: What do you have for COC(=O)C(C)NC(=O)[C@@H](C)Oc1nn(-c2ccccn2)c(-c2ccc(F)nc2)c1Cl (some centres unmarked) ?
Return: 90

---

- System: Echinochloa crus-galli (ECHCG)
- test-name: Pre-emergence herbicidal action against ECHCG
- Format: in vivo
- condition-details: dosage 320 g/ha
- From the text: Seeds of monocotyledonous and dicotyledonous weed plants and crop plants are placed in plastic or organic planting pots and covered with soil. […] After about 3 weeks, the effect of the preparations is scored visually in comparison with untreated controls as percentages. […]
endpoint-name: Pre-emergence action against ECHCG in % (%)
Provide the reading as a plain figure in %.

>  <compound>
COC(=O)[C@H](C)NC(=O)COc1nn(-c2ccccn2)c(-c2ccc(F)nc2)c1Cl [Example I-87]

>  <units-of-measure>
%

>  <Pre-emergence action against ECHCG in %>
100

$$$$

Enquiry: Query: Pre-emergence action against ECHCG in %; subject: O=C(O)COc1nn(-c2ncccc2F)c(-c2ccc(F)nc2)c1Br [Example I-17]
Return: 90

Enquiry: # repeat for O=C(O)COc1nn(-c2ccccn2)c(-c2ccc(F)nc2)c1Cl [Example I-98]
Return: 100

Enquiry: Next compound up: CCOC(=O)COc1nn(-c2nc(F)ccc2F)c(-c2cncc(F)c2)c1C1CC1 [Example I-149]
Return: 100

---

- Test system: Oryza sativa (ORYSA)
- Type: in vivo
- condition-details: crop plant compatibility, 20 g/ha, effect vs untreated controls
endpoint-name: Post-emergence action against ORYSA in % (%)

Below, each entry is followed by its recorded Post-emergence action against ORYSA in % result.
>  <compound>
C[C@@H](Oc1nn(-c2ccccn2)c(-c2cncc(F)c2)c1Br)C(=O)O

>  <system-tested>
Oryza sativa (ORYSA)

>  <Post-emergence action against ORYSA in % [%]>
0

$$$$
>  <compound>
CCOC(=O)COc1nn(-c2ncccc2F)c(-c2ccnc(F)c2)c1Br

>  <system-tested>
Oryza sativa (ORYSA)

>  <Post-emergence action against ORYSA in % [%]>
10

$$$$
>  <compound>
O=C(O)COc1nn(-c2ncccc2F)c(-c2ccc(F)nc2)c1Br

>  <system-tested>
Oryza sativa (ORYSA)

>  <Post-emergence action against ORYSA in % [%]>
0

$$$$

[a] O=C(COc1nn(-c2ncccc2F)c(-c2ccc(F)nc2)c1C1CC1)OCC1CCOC1 (centres unmarked)
[b] O=C(COc1nn(-c2ccccn2)c(-c2ccc(F)nc2)c1Br)OCC1CCCO1 (centres unmarked)
Enquiry: Out of a and b , name the one with the higher Post-emergence action against ORYSA in %. Kindly state the label of the option you pick.
Return: b

---

- Tested on: Triticum aestivum (TRZAS)
- Type: in vivo
- condition-details: pre-emergence, 80 g/ha, crop plant compatibility, in comparison to untreated controls
endpoint-name: Pre-emergence action against TRZAS in % (%)

>  <compound>
CCOC(=O)COc1nn(-c2ccncc2)c(-c2ccc(F)nc2)c1Br

>  <reported>
0

$$$$
>  <compound>
O=C(O)CSc1nn(-c2ccccn2)c(-c2cncc(Cl)c2)c1Br

>  <reported>
20

$$$$

[1] COCCOC(=O)COc1nn(-c2cccc(C)n2)c(-c2ccc(F)nc2)c1Cl
[2] COC(=O)C1CCN(C(=O)COc2nn(-c3ccccn3)c(-c3ccc(F)nc3)c2Br)C1 (stereo not shown)
Enquiry: When 1 and 2 are compared, which has the higher number for Pre-emergence action against TRZAS in %? Let me know the label of the one you choose.
Return: 1

---

- Tested on: Alopecurus myosuroides (ALOMY)
- test-name: Post-emergence herbicidal action against ALOMY
- Format: in vivo
- condition-details: 320 g/ha, visual rating about 3 weeks after treatment vs untreated controls (100% = plants have died, 0% = like control plants)
Below is a list of entries, each paired with its recorded Post-emergence action against ALOMY in % value.
Write down the numeric answer in % and omit the unit.

Example entries begin here.
>  <molecule>
COC(=O)CSc1nn(-c2ccccn2)c(-c2cncc(F)c2)c1Br [Example I-151]

>  <reported>
80

$$$$
>  <molecule>
COC(=O)COc1nn(-c2ncccc2C(F)(F)F)c(-c2cncc(F)c2)c1I [Example I-223]

>  <reported>
80

$$$$
>  <molecule>
CCOC(=O)COc1nn(-c2ccccn2)c(-c2ccc(F)nc2)c1Br [Example I-02]

>  <reported>
100

$$$$
>  <molecule>
COC(=O)[C@@H](C)Oc1nn(-c2ncccc2F)c(-c2ccc(F)nc2)c1C1CC1 [Example I-307]

>  <reported>
100

$$$$
>  <molecule>
COC(=O)[C@@H](C)Oc1nn(-c2ncccc2F)c(-c2cncc(F)c2)c1Br [Example I-15]

>  <reported>
90

$$$$

Enquiry: What is its Post-emergence action against ALOMY in % for Alopecurus myosuroides (ALOMY)? Entry: C[C@@H](Oc1nn(-c2ncccc2F)c(-c2ccc(F)nc2)c1Br)C(=O)O [Example I-18]
Return: 100

Enquiry: Now the same for CCOC(=O)COc1nn(-c2ncccc2F)c(-c2cncc(F)c2)c1C1CC1 [Example I-174]
Return: 90

---

- Test system: Amaranthus retroflexus (AMARE)
- test-name: Post-emergence herbicidal action against AMARE
- Assay type: in vivo
- condition-details: 320 g/ha, visual rating about 3 weeks after treatment
endpoint-name: Post-emergence action against AMARE in % (%)
Numbers only; they are read as %.

Would you please look over these solved cases?
>  <molecule>
COC(=O)COc1nn(-c2ncccc2F)c(-c2ccc(F)nc2)c1C1CC1

>  <units-of-measure>
%

>  <Post-emergence action against AMARE in %>
90

$$$$
>  <molecule>
C=C(COC(=O)[C@@H](C)Oc1nn(-c2ccccn2)c(-c2ccc(F)nc2)c1Cl)C(=O)OC

>  <units-of-measure>
%

>  <Post-emergence action against AMARE in %>
80

$$$$
>  <molecule>
COC(=O)CNC(=O)CSc1nn(-c2ccccn2)c(-c2cncnc2)c1Br

>  <units-of-measure>
%

>  <Post-emergence action against AMARE in %>
80

$$$$
>  <molecule>
Cc1ncccc1-n1nc(OCC(=O)OCc2ccccn2)c(Br)c1-c1cncc(F)c1

>  <units-of-measure>
%

>  <Post-emergence action against AMARE in %>
80

$$$$

Enquiry: So what does the record say about Post-emergence action against AMARE in % for COC(=O)CCOC(=O)C(C)Oc1nn(-c2ccccn2)c(-c2ccc(F)nc2)c1C(F)(F)F (stereo not drawn) ?
Return: 80

Enquiry: Then O=C(O)CSc1nn(-c2ccccn2)c(-c2cncc(F)c2)c1C1CC1 ?
Return: 90

Enquiry: Would you mind doing CCOC(=O)COc1nn(-c2ccnc(Cl)c2)c(-c2ccc(F)nc2)c1Br as well?
Return: 100

Enquiry: Another molecule: COC(=O)[C@@H](C)Oc1nn(-c2ncccc2F)c(-c2ccc(F)nc2)c1I
Return: 80

Enquiry: Query Cc1ncccc1-n1nc(OCC(=O)O)c(Cl)c1-c1cncc(F)c1 next
Return: 90
